test system: human DHODH (Homo sapiens)
Construct: purchased Proteros PR-0044
Sequence (Q02127 whole entry): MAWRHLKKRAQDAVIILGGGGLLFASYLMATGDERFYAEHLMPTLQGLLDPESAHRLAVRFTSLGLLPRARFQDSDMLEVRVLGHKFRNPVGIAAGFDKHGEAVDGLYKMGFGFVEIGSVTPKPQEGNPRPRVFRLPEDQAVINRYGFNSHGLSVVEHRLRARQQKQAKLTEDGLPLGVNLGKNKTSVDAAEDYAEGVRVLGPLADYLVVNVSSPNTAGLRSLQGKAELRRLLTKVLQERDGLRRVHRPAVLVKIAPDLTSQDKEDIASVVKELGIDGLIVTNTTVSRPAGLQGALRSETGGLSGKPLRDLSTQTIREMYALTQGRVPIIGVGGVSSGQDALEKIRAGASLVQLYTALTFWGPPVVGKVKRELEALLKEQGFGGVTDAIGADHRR
assay text: DHODH Enzymatic Assay
Assay type: biochemical
measurement parameters: purified human DHODH; DCIP absorbance, end-point mode
measured attribute: IC50 (nM)

A: CCn1c(CO)nn(-c2cc3c(C(C)C)cc(N4CCCCC4)nc3cc2F)c1=O
B: CCn1c(CO)nn(-c2cc3c(C(C)C(F)(F)F)cc(-c4ccccc4C)nc3cc2F)c1=O (single isomer, unassigned)
C: Cc1n[nH]c(Cl)c1-c1cc(C(C)C)c2cc(-c3nc(CO)n(C)n3)c(F)cc2n1
D: CCn1c(CO)nn(-c2cc3c(C(C)C)cc(-c4ccccc4OC)nc3cc2F)c1=O
E: Cc1n[nH]c(C(F)(F)F)c1-c1cc(C(C)C)c2cc(-c3cn(C)c(CO)n3)c(F)cc2n1
Query :: Order the entries by their reported IC50, beginning at the minimum. Please list the labels according to the requested order.
Result :: B, C, E, D, A
(B: 0.32 nM, C: 1.2 nM, E: 2 nM, D: 3.3 nM, A: 120 nM)

1: CCn1c(CO)nn(-c2cc3c(C(C)C)cc(-c4c(C)cnc(OC)c4Cl)nc3cc2F)c1=O
2: CCn1c(CO)nn(-c2cc3c(C(C)C)cc(-c4ccccc4C)nc3cc2F)c1=O
Query :: Of 1 and 2 , which shows the smaller IC50 value? Mark your answer with the label of the selected entry.
Result :: 2

* * *

test system: human DHODH (Homo sapiens)
measured attribute: IC50 (nM)

Query :: Identify measured IC50 associated with [2H]C([2H])([2H])c1ccccc1-c1cc(C(C)C)c2cc(-n3nc(CO)n(CC)c3=O)c(F)cc2n1 [Example 38]
Result :: 1.7

Query :: Identify measured IC50 associated with CCn1c(CO)nn(-c2cc3c(C(C)C)cc(-c4c(Cl)c(OC)nn4C)nc3cc2F)c1=O [Example 26]
Result :: 13

1: CCn1c(CO)nn(-c2cc3c(C(C)C)cc(C4CCOCC4)nc3cc2F)c1=O [Example 20]
2: CCn1c(CO)nn(-c2cc3c(C(C)C)cc(-c4c(C(F)(F)F)n[nH]c4C)nc3cc2F)c1=O [Example 3]
Query :: Of 1 and 2 , which shows the smaller IC50 value? Mark your answer with the label of the selected entry.
Result :: 2
(2: 0.58 nM, 1: 730 nM)

* * *

pIC50: −log10 of the molar value.
A set of compounds tested on human DHODH (Homo sapiens), with measured pIC50:
measured attribute: pIC50

P: Cc1n[nH]c(C(F)(F)F)c1-c1cc(C(C)C)c2cc(-c3nc(CO)n(C)n3)c(F)cc2n1 [Example 28]
Q: CCn1c(CO)nn(-c2cc3c(C(C)C)cc(-c4c(Cl)c(O)nn4C)nc3cc2F)c1=O [Example 25]
R: Cc1n[nH]c(C(F)(F)F)c1-c1cc(C(C)C)c2cc(-c3nc(C(C)O)n(C)n3)c(F)cc2n1 (stereo not drawn) [Example 29]
Query :: Order the entries by their reported pIC50, beginning at the minimum. Please list the labels according to the requested order.
Result :: Q, P, R
